Hi there, I'd appreciate the recorded Biochem EGFR %Inhibition for every entry that follows.
Target: EGFR (Homo sapiens, UniProt P00533)
Construct: Add 7 ug A431 cell lysate per well (EGFR source); endogenous in cells; host or cells: A431
Sequence (P00533 25-1210): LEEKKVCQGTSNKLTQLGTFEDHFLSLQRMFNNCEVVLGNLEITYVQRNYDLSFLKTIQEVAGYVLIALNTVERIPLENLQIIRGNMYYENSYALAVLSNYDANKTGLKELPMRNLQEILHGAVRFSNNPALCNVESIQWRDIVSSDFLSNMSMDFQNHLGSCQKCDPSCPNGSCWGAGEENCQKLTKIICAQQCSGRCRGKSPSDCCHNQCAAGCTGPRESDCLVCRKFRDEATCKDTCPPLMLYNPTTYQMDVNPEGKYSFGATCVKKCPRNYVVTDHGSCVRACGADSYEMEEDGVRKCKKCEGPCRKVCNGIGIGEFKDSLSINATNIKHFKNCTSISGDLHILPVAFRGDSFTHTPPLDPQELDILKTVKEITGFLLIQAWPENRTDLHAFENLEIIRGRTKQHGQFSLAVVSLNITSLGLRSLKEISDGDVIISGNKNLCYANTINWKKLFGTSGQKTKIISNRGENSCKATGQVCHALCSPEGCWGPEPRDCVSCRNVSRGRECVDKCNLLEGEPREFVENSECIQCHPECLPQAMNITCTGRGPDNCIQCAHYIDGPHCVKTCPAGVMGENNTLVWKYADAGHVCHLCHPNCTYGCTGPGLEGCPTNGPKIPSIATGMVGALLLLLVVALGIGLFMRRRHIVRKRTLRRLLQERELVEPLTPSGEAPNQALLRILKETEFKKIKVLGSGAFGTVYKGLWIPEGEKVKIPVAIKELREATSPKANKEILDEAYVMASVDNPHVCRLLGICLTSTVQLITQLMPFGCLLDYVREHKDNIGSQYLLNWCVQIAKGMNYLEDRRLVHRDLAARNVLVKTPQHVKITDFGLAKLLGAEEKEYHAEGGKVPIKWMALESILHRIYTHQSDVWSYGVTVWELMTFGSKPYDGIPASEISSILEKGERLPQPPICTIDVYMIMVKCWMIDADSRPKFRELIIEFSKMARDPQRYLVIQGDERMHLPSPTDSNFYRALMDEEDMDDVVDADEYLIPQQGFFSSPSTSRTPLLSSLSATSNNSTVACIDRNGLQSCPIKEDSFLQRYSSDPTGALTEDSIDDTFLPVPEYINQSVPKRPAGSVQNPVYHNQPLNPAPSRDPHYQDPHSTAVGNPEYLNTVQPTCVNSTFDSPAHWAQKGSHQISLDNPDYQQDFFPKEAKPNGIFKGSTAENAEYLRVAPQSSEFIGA
Assay: EGFR ELISA assay (in vitro kinase activity, EGFR captured from A431 cell lysate)
Format: biochemical
Parameters: concentration or dose not given beside the values
Source text: To provide a consistent method for measuring the in vitro kinase activity of the EGFR in an Enzyme-linked immunosorbent assay (Elisa). Scope. The following protocol describes the procedures used to analyze protein tyrosine kinase activity on the EGFR in an Elisa. The procedure also describes the protocol for the initial screening of drugs for inhibition or activation of protein tyrosine kinase activity. Reagents and Supplies. • 1. […]
Express the result in % but write the number alone.

Note down Biochem EGFR %Inhibition recorded for CCOc1ccc(C=C2C(=O)Nc3ccc(S(=O)(=O)Nc4ccc(C(F)(F)F)cc4)cc32)cc1OC [10719/E02]
40.0

Indicate the recorded Biochem EGFR %Inhibition value for this compound: CNS(=O)(=O)c1ccc2c(c1)C(=CC1CC(OC)OC1OC)C(=O)N2 (centres unmarked) [10730/D10]
16.7

Please report the measured Biochem EGFR %Inhibition for O=C1Nc2ccc(CCCl)cc2C1=Cc1ccc(O)c(O)c1O [10723/G02]
90.8

Provide one value: measured Biochem EGFR %Inhibition of CNS(=O)(=O)c1ccc2c(c1)C(=Cc1cc(OC)c(OC)cc1OC)C(=O)N2 [10730/D03]
9.9

Return value of Biochem EGFR %Inhibition for input O=C1Nc2ccc(S(=O)(=O)N3CCOCC3)cc2C1=Cc1cccs1 [10717/F03] , no commentary.
-4.7

---

Biological target: FLK-1 receptor (Mus musculus, UniProt P35918)
Construct: expressed in transfected cells; host or cells: NIH3T3 C7#3
Sequence (P35918 20-1345): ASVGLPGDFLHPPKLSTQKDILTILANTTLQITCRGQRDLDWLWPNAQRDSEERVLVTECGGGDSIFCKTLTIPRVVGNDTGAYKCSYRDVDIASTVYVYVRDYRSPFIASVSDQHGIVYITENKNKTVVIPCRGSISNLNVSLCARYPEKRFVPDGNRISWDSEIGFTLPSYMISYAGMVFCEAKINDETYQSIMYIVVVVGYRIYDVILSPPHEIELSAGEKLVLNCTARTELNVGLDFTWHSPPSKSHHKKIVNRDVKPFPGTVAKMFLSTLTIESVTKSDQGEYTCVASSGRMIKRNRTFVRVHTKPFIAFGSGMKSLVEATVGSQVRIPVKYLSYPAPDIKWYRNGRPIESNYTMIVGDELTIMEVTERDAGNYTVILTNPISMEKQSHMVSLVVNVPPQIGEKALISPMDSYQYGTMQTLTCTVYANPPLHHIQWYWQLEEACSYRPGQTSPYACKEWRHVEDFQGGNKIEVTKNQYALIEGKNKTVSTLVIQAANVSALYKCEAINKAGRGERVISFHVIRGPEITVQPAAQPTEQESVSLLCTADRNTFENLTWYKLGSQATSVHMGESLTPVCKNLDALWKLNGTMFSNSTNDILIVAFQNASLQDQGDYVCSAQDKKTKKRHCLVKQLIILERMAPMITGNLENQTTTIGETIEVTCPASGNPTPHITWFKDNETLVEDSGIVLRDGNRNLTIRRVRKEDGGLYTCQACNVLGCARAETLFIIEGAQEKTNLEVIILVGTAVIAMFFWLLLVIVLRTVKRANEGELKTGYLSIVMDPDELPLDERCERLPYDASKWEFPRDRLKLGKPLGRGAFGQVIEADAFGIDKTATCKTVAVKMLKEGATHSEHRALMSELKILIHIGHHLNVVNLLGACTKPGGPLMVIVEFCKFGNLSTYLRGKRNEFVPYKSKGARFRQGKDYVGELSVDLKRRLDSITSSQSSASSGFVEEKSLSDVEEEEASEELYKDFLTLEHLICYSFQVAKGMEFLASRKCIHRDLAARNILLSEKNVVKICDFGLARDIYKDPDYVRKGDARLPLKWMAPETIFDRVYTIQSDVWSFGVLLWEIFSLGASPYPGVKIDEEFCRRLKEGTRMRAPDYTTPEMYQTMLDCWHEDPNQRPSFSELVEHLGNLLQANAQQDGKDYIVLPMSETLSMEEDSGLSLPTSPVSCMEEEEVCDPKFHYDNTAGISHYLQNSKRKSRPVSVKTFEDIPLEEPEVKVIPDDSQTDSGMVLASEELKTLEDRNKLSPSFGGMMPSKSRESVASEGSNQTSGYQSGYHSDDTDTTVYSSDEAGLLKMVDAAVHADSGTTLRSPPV
Assay: FLK-1 ELISA (kinase activity of the FLK-1 receptor in FLK-1/NIH3T3 cells, VEGF stimulated)
Format: cell-based
Field: Fik Kinase %Inhibition. Provide a value for each of the molecules that follow.
Expressed in %, but write only the number.

Give recorded Fik Kinase %Inhibition. CNS(=O)(=O)c1ccc2c(c1)C(=Cc1cc(OC)c(OC)cc1OC)C(=O)N2
8.4

For CNS(=O)(=O)c1ccc2c(c1)C(=Cc1ccccc1Sc1ccc(Cl)cc1)C(=O)N2 , write its Fik Kinase %Inhibition.
8.5

Note Fik Kinase %Inhibition for the molecule shown: COc1c(O)ccc(C=C2C(=O)Nc3ccc(Br)c(C)c32)c1[N+](=O)[O-]
42.8

Supply Fik Kinase %Inhibition value. Item: Cc1cc(C=C2C(=O)Nc3ccc(Br)c(C)c32)sc1C
21.8

Input Cc1ccc(C=C2C(=O)Nc3c(Br)cc(Br)cc32)s1 , output reported Fik Kinase %Inhibition.
-6.4

---

Target: EGFR (Homo sapiens, UniProt P00533)
Construct: Add 7 ug A431 cell lysate per well (EGFR source); endogenous in cells; host or cells: A431
Test: EGFR ELISA assay (in vitro kinase activity, EGFR captured from A431 cell lysate)
Format: biochemical
Design: concentration or dose not given beside the values
Record form. Attribute: Biochem EGFR %Inhibition. Fill in for each entry.
Answer format: numeric, % implied, no suffix.

Given the molecule Cc1c(Br)ccc2c1C(=Cc1ccc(F)cc1C(F)(F)F)C(=O)N2 , write its reported Biochem EGFR %Inhibition.
-25.7

Look up Biochem EGFR %Inhibition of CCOC(=O)c1cc(C=C2C(=O)Nc3ccc(CCCl)cc32)oc1C and report it.
-18.7

Identify measured Biochem EGFR %Inhibition corresponding to CNS(=O)(=O)c1ccc2c(c1)C(=Cc1ccc(OC)c(OC)c1)C(=O)N2
-7.7

Specify Biochem EGFR %Inhibition for CNS(=O)(=O)c1ccc2c(c1)C(=Cc1coc3cc(C)c(C)cc3c1=O)C(=O)N2 and stop.
16.3

Please indicate Biochem EGFR %Inhibition recorded for O=C1Nc2ccc(CCCl)cc2C1=Cc1c(F)cc(F)cc1F
-13.1

For the molecule O=C1Nc2ccc(CCCl)cc2C1=Cc1cc(O)c2c(c1O)CCCC2 , report Biochem EGFR %Inhibition.
54.4

Note down Biochem EGFR %Inhibition recorded for COc1c(C(C)(C)C)cc(C=C2C(=O)Nc3ccc(I)cc32)cc1C(C)(C)C
28.5

Using known records, supply Biochem EGFR %Inhibition for CNS(=O)(=O)c1ccc2c(c1)C(=Cc1ccc(C(=O)O)cc1)C(=O)N2
-3.8

// fetch Biochem EGFR %Inhibition given entry COc1cccc(OC)c1C=C1C(=O)Nc2c(Br)cc(Br)cc21
-25.8

Give the measured Biochem EGFR %Inhibition for Cn1cccc1C=C1C(=O)Nc2ccc(S(=O)(=O)Nc3ccc(C(F)(F)F)cc3)cc21
-28.3

Identify measured Biochem EGFR %Inhibition corresponding to CNS(=O)(=O)c1ccc2c(c1)C(=Cc1csc([N+](=O)[O-])c1)C(=O)N2
-17.2

Answer with reported Biochem EGFR %Inhibition of CCc1ccc(C=C2C(=O)Nc3ccc(S(=O)(=O)NC)cc32)o1
12.7

Identify the reported Biochem EGFR %Inhibition for the following entry. O=C1Nc2ccc(S(=O)(=O)N3CCOCC3)cc2C1=Cc1cccc(F)c1O
-23.6

Please report Biochem EGFR %Inhibition for the following molecule: O=C1Nc2ccc(S(=O)(=O)N3CCOCC3)cc2C1=Cc1cc(Br)cc(Br)c1O
33.7

Could you please provide reported Biochem EGFR %Inhibition for COc1ccc(C=C2C(=O)Nc3ccc(Br)c(C)c32)cc1 ? Thanks!
4.8

Return the recorded Biochem EGFR %Inhibition value; entry: O=C(O)COc1ccccc1C=C1C(=O)Nc2c(Br)cc(Br)cc21
-3.4

Using known records, supply Biochem EGFR %Inhibition for O=C1Nc2ccc(S(=O)(=O)N3CCOCC3)cc2C1=Cc1cc(Cl)ccc1O
3.9

For the molecule CNS(=O)(=O)c1ccc2c(c1)C(=Cc1cc(Cl)ccc1O)C(=O)N2 , report Biochem EGFR %Inhibition.
-10.7
